# Subject of test: EPHB2 (UniProt P29323)
# Sequence (P29323 whole entry, looked up): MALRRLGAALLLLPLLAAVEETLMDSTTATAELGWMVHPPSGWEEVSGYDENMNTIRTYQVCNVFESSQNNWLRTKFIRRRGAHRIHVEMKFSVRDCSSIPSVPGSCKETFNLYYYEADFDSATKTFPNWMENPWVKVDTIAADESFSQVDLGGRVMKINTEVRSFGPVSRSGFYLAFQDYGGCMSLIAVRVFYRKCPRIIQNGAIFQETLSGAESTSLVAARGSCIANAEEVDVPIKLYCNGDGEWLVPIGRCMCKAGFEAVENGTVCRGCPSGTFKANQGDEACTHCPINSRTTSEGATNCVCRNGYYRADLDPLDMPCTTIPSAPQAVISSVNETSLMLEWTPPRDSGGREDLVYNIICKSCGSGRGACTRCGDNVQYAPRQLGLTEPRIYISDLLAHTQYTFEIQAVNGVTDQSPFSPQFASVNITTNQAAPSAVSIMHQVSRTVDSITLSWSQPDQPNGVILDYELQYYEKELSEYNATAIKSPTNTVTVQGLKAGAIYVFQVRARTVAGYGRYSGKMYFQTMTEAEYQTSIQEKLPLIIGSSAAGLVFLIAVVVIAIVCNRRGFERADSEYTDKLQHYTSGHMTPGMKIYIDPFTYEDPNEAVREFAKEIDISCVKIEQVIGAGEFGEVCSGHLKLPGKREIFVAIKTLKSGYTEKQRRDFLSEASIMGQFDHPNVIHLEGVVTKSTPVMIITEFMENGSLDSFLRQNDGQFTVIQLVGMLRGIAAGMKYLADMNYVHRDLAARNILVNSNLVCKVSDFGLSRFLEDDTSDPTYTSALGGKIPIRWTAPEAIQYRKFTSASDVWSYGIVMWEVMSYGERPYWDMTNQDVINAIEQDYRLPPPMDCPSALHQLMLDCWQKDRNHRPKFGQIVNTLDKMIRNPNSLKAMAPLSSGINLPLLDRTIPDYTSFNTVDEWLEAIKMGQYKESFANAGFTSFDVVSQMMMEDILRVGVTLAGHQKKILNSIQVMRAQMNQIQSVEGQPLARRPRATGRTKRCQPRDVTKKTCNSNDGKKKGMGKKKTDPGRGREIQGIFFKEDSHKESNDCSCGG
# Assay notes: phosphorylation enrichment, bacterial display (enrichment ratio); higher = better substrate or ligand; peptides without Tyr show the background;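 note: 11-residue human phosphosite peptides and single-mutation variants displayed on the E. coli surface, counted by deep sequencing, each peptide's frequency after selection divided by its frequency in the unselected input library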;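 note: frequency after pTyr selection over input frequency; kinase dosed for 20-30% of maximal phosphorylation in three min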
Quick list: phosphorylation enrichment per entry.

Problem: Request the reported phosphorylation enrichment associated with NPSFNYEIVNR [DYNC1H1_Y3379_YF]
Result: 1.29

Problem: How about this sequence: VGQRPYRPLPE [REEP3_Y170_Q171R]
Result: 0.557

Problem: Same thing, different sequence: REVPVYIGEDS [SYNM_Y460]
Result: 0.547

Problem: Also, AHAGEHGAEAL [HBA1_Y25_Y25H] please.
Result: 0.439

Problem: Now consider HDRGNYVQLNM [RECQL4_Y353_R355Q] .
Result: 3.46

Problem: # iterate: LEDPMYDIIRD [RP9_Y142_H137L]
Result: 6.72

Problem: What would you report for KLIETYSSKNF [PLP1_Y50_F51S_YF] ?
Result: 0.618

Problem: Proceed to KSLFHYRQFSA [CPS1_Y1491_YF]
Result: 0.453

Problem: Now consider QLHREYCLSPR [HJURP_Y445] .
Result: 0.786

* * *

# Test system: c-Src
# Assay notes: phosphorylation enrichment, bacterial display (enrichment ratio); higher = better substrate or ligand; peptides without Tyr show the background
Quick reference for phosphorylation enrichment among some sequences

RPFVFYFSFLL [PTEN_Y177_R173P_YF] :: 0.982
DDHFTYSRFPW [LY75_Y888_YF] :: 4.98
EDEGLYMVRVP [MYOM3_Y343] :: 3.41
PSDPSYEDTRE [BMPR1A_Y467_M470T] :: 1.14
CTNPQYLAAGS [RABL3_Y185_R184Q] :: 0.409
ENELTYYCYKK [CD59_Y86_C89Y] :: 5.18

Problem: Return reported phosphorylation enrichment; argument: ALAHEYHGGGG [HBB_Y146_K145E]
Result: 0.41

Problem: Another sequence to check: VMAVAYRLAEQ [HK1_Y461_T457M]
Result: 0.463

Problem: Another sequence to look at: VRALTYCDLHK [KCNH2_Y827]
Result: 0.392

Problem: Next sequence up: RNGDRYFKEIV [DCX_Y64_G67E]
Result: 0.559

Problem: And what about the sequence GSETPYMDRTP [ESS2_Y335_V336M] ?
Result: 0.454

Problem: What about PFFTSYPPSPD [GDAP2_Y491_YF] ?
Result: 0.588

Problem: Record: KVVNEYVTKGQ [MYH7_Y410_G407V]
Result: 0.433

Problem: Same read-out for ATQDNYVLEVR [PTPRZ1_Y2179_D2178N] ?
Result: 0.38

* * *

# Test system: Fer (mouse)
# Assay notes: phosphorylation enrichment, bacterial display (enrichment ratio); higher = better substrate or ligand; peptides without Tyr show the background
Measure: phosphorylation enrichment
Kindly provide the number alone.

Below, each entry is followed by its recorded phosphorylation enrichment result.
SHSMRYFFTAV [HLA-C_Y31_D33F] :: 0.619
QDGYSYLSRQM [LDLR_Y847_P848L] :: 0.562
IVFVICDEVVK [SLC25A1_Y297_Y297C] :: 0.498
RIVEIYSRRLQ [GCH1_Y175] :: 0.556
ARGTRYRFVSQ [UCN3_Y95_YF] :: 0.492

Problem: Lab request: please report phosphorylation enrichment under test system Fer (mouse) for FIRKDYEACKA [BBS4_Y48_YF]
Result: 0.49

Problem: Try the sequence RQGQAYRGQRV [TSHR_Y706_A703G]
Result: 0.649

Problem: Also check RELGEYPLAEF [ALDH1A3_Y492_A493P_YF]
Result: 0.484

* * *

Attribute: phosphorylation enrichment
# Subject of test: FGFR3 (UniProt P22607)
# Sequence (P22607 whole entry, looked up): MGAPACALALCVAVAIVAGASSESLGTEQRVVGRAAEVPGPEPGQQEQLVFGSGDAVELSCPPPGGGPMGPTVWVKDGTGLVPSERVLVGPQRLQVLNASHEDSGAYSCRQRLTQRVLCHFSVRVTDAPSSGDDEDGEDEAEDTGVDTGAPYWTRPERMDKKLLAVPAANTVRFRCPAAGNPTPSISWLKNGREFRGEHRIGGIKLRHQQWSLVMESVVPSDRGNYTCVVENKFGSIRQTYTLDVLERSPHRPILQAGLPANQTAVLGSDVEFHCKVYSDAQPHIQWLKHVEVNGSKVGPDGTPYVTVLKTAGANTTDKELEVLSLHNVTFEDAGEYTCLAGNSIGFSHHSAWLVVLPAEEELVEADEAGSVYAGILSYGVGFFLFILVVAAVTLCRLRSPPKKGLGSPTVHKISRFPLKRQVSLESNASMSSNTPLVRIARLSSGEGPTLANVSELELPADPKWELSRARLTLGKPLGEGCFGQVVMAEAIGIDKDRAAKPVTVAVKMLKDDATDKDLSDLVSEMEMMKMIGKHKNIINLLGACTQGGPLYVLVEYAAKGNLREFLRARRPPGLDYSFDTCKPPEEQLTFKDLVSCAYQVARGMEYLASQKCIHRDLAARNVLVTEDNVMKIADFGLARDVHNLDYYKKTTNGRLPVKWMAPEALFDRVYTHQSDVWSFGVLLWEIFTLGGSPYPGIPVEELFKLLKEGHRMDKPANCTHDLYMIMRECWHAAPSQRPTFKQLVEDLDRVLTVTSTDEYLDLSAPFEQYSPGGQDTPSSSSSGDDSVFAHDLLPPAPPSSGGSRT
# Assay notes: phosphorylation enrichment, bacterial display (enrichment ratio); higher = better substrate or ligand; peptides without Tyr show the background

Field: example entries. Status: answers known.
YGTAQYCCRMG [LRRK2_Y2023_I2020T] :: 0.603
CTTIYYNYMCN [TP53_Y234_H233Y] :: 9.96
LLAGLYRGQAL [FGFR4_Y390] :: 0.526
IVAREYFSEAD [CAMK2A_Y106_YF] :: 0.752
LFIDSYEKDVA [PGM1_Y521_YF] :: 1.48
GTAPSYGNPSS [CD19_Y378] :: 0.494
KGLMPYGQPRP [SRRT_Y798_Q793K] :: 0.366
KSPGEYVNIEF [IRS1_Y896] :: 1.06

Problem: Data request, read-out phosphorylation enrichment, for WDSSGYWTPEE [PAPPA2_Y908_C903W]
Result: 0.87

Problem: Let us now turn to RHLQEYQDPLN [GFAP_Y349_L352P]
Result: 0.668

Problem: Another sequence to look at: QDRTFYESVRT [SPEN_Y633_YF]
Result: 0.686

Problem: How about this sequence: VDFQPYRKHKF [TEX37_Y28_YF]
Result: 0.587

Problem: Another sequence to look at: SAQHHYESLQT [BIN1_Y157_R154Q]
Result: 0.442

Problem: Field entry: CTTIHFNYMCN [TP53_Y234_Y234F]
Result: 0.553

* * *

Entries annotated with measured phosphorylation enrichment
# Subject of test: EPHB1 (UniProt P54762)
# Sequence (P54762 whole entry, looked up): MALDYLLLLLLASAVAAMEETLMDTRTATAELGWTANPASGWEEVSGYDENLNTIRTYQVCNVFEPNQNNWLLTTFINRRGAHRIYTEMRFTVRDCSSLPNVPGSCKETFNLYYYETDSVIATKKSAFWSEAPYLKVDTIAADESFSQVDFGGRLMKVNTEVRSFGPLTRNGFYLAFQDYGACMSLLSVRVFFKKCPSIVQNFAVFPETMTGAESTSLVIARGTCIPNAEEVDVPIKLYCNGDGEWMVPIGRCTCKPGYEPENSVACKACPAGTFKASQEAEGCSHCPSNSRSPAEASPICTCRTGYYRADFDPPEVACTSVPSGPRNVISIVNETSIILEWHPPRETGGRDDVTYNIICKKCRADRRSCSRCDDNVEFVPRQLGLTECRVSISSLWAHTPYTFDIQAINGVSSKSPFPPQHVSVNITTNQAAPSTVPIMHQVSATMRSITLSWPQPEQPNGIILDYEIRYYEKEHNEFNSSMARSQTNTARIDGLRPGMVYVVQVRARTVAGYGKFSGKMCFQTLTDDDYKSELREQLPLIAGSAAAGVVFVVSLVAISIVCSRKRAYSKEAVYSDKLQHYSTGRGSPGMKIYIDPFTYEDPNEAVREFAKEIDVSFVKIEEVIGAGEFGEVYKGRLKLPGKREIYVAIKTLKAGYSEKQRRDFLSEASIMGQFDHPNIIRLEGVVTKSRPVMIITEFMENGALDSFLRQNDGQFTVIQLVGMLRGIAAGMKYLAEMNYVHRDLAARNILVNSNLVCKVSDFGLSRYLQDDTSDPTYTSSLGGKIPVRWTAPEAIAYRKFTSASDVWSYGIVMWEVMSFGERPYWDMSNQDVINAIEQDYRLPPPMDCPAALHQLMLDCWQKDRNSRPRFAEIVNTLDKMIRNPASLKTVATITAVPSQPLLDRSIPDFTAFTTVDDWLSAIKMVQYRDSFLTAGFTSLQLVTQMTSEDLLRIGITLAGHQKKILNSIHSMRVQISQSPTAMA
# Assay notes: phosphorylation enrichment, bacterial display (enrichment ratio); higher = better substrate or ligand; peptides without Tyr show the background

Reference set, count: 5
GREAEYSEKHG [EPHB4_Y574_D576E] :: 0.514
GHNNVYISEHV [GRIN2A_Y1423_D1421N] :: 0.374
RRGTGYTLSLP [MAGEC3_Y152] :: 0.553
KLIETYSSKNF [PLP1_Y50_F51S_YF] :: 0.769
SHLSAFPALEG [CD5_Y465_Y465F] :: 0.431

Problem: State the recorded phosphorylation enrichment for this entry: GITTGYLVLKE [DNMT3B_Y588_A585T]
Result: 0.39

Problem: Also need KRNSLYSFSDH [CCDC82_Y331_Q327R] , thanks.
Result: 0.458

Problem: Would you mind doing SVTCTGSPALN [TP53_Y126_Y126G] as well?
Result: 0.539

Problem: Cool, now KLSFSYGRALQ [ALDOB_Y302]
Result: 0.548

Problem: Now give it for VDFQPYRKHKF [TEX37_Y28_YF] too.
Result: 0.403

* * *

# Subject of test: FGFR1 (UniProt P11362)
# Sequence (P11362 whole entry, looked up): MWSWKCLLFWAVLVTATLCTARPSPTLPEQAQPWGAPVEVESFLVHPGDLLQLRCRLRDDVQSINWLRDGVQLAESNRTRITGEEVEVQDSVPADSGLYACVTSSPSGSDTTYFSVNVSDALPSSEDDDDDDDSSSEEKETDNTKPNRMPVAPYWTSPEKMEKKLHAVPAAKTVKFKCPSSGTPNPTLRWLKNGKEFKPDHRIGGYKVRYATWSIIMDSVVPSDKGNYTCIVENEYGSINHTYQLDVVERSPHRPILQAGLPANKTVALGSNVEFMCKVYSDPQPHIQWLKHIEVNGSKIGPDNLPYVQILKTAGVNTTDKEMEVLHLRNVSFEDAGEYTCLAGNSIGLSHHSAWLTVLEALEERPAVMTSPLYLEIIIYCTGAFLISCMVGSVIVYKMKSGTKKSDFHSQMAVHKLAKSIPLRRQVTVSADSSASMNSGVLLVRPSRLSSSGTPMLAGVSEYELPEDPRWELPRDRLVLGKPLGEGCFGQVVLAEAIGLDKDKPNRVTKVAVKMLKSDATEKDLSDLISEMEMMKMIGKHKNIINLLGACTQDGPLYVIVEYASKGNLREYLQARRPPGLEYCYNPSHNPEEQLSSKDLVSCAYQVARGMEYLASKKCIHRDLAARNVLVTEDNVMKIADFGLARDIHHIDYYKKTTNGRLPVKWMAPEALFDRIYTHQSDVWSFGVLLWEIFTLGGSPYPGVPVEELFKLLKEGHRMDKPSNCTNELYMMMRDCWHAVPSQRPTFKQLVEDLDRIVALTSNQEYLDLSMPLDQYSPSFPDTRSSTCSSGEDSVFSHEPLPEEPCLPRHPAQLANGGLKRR
# Assay notes: phosphorylation enrichment, bacterial display (enrichment ratio); higher = better substrate or ligand; peptides without Tyr show the background
Recorded phosphorylation enrichment, one value per entry.
// no unit, no text: just the number

Examples with answers:
LDPMVYMNDTS [PTK2B_Y834_K838T] :: 0.64
IRDENYGEGSS [ACO2_Y665_G661R] :: 0.437
MEFAKYGSLRG [RET_Y809_V804M_YF] :: 0.514

Problem: Return reported phosphorylation enrichment; argument: FKGIVYSVSSD [DCX_Y70_A71S]
Result: 0.548

Problem: Now consider RLLVVYPWTQG [HBG2_Y36_R41G] .
Result: 0.603

* * *

# Subject of test: FGFR1 (UniProt P11362)
# Assay notes: phosphorylation enrichment, bacterial display (enrichment ratio); higher = better substrate or ligand; peptides without Tyr show the background
Recorded phosphorylation enrichment split into classes low value (below 0.5), medium value (0.5 to below 0.7), high value (0.7 or more)

EQMLEYMGQLQ [CFAP45_Y289_E291G] :: low value

Problem: Note: place this sequence into its band. Item: FIGRIYLFLTK [GARS1_Y414_YF]
Result: medium value

Problem: What about KEAALYPHLPP [SQSTM1_Y383] ?
Result: low value

Problem: Now try GAEIVYKSPVV [MAPT_Y711] .
Result: low value

Problem: What about this sequence? DVVKDYAFVHM [RBM14_Y114]
Result: high value

Problem: Moving on to the next sequence: LTSKPYAFTAW [NDUFS1_Y236_R241W]
Result: low value

Problem: What would you report for EVEPTYVVLFD [ERCC4_Y577_R576T_YF] ?
Result: high value

Problem: Similarly, ANAYIYVVQLP [L1CAM_Y420] ?
Result: high value

Problem: Next record, please: WASSSYRETPS [SORBS1_Y79_R74W]
Result: low value

Problem: Now the sequence PSQRRYVYYYS [PTEN_Y174]
Result: high value

Problem: And for KIKGWYEKCEP [KRT26_Y119] ?
Result: medium value

* * *

# Subject of test: EPHB1 (UniProt P54762)
# Assay notes: phosphorylation enrichment, bacterial display (enrichment ratio); higher = better substrate or ligand; peptides without Tyr show the background
Label Condition met when phosphorylation enrichment is at or above 0.6; anything below gets Condition not met.

Some solved cases for reference:
RSDSTYRMSAT [NHS_Y1532_S1531T] :: Condition not met
TTICKYSTPME [GUCY2C_Y839] :: Condition not met
YRASYYRKGGC [ALK_Y1283] :: Condition not met
VICRRYLVMQR [IL3RA_Y328] :: Condition not met
ADRNHYRRYPR [YBX1_Y145] :: Condition not met
YPKVRYHWLVL [APTX_Y214_A212V] :: Condition met
VAFLYYKSIGP [ADGRL4_Y302_V300L] :: Condition met
HSLLQYGGSAN [ANK1_Y624_R619H] :: Condition not met
DRLASYLDKVR [KRT10_Y160] :: Condition not met
PFFTSYPPSPD [GDAP2_Y491_YF] :: Condition not met

Problem: For this sequence, is measured phosphorylation enrichment 0.6 or higher? GPGLVYGVANK [FLNB_Y1833]
Result: Condition not met

Problem: Could you do the same for FPIDHYLGKEM [G6PD_Y202_R198P_YF] , please?
Result: Condition not met

Problem: Next sequence: VKPENDRRLDI [VHL_Y175_Y175D]
Result: Condition not met
